Taken from PubChem BioAssay (NCI).

test system: NCI-H23 lung; assay: NCI-60 one-dose screen, 48 h; conditions: 10 µM
About 83,000 compounds went through this panel and 20% of them were active in at least one assay; those are over-represented in the sample as a whole. The source made the active and inactive calls. The calls were made as follows: active = growth percent below 10; inactive = the rest.
Return exactly one item of true (1) (active), false (0) (inactive)

INPUT: In this assay, the call recorded for COc1ccc(-c2cc(C(=O)N=Nc3c(O)[nH]c4ccc(Br)cc34)c3ccccc3n2)cc1 was what?
OUTPUT: true (1)

INPUT: In this assay, the call recorded for COc1ccc(C(=O)/C=C/c2cc(C(F)(F)F)cc(C(F)(F)F)c2)cc1S(N)(=O)=O was what?
OUTPUT: true (1)

INPUT: In this assay, the call recorded for O/N=C(\CSc1nnc(-c2c[nH]c3ccccc23)n1-c1ccccc1)c1ccc(Br)cc1 was what?
OUTPUT: false (0)

INPUT: In this assay, the call recorded for O=C(CS(=O)(=O)c1oc(-c2ccc(Cl)cc2)nc1S(=O)(=O)c1ccccc1)N1CCCC1 was what?
OUTPUT: false (0)

INPUT: In this assay, the call recorded for CN1C(=O)N(C)C2SC(N/N=C/C=C/c3ccccc3)=NC21 (centres undefined) was what?
OUTPUT: false (0)

INPUT: In this assay, the call recorded for COC(=O)C[C@](O)(CCCC(C)(C)O)C(=O)O[C@H]1C(OC)=C[C@@]23CCC(=O)N2CCc2cc4c(cc2[C@@H]13)OCO4 was what?
OUTPUT: false (0)

INPUT: In this assay, the call recorded for CN1CCc2c(sc3ncnc(N/N=C/c4cn(-c5ccccc5)nc4-c4ccc(Br)cc4)c23)C1 was what?
OUTPUT: true (1)

INPUT: In this assay, the call recorded for COc1cc(C2CC(c3ccc(C)cc3)=Nc3c(N)nc(N)nc3N2)ccc1Oc1nc(Nc2ccc(F)cc2)nc(N(C)C)n1 (centres undefined) was what?
OUTPUT: false (0)

Here's the next entry for you.
INPUT: In this assay, the call recorded for O=C(/C=C/Nc1ccccc1)c1ccc2c(c1)Nc1ccccc1S2 was what?
OUTPUT: false (0)

###

system: SK-MEL-2 melanoma; assay: NCI-60 one-dose screen, 48 h (100 = growth as untreated, 0 = no growth, -100 = all killed); settings: 10 µM
The panel holds about 83,000 compounds, 20% with a hit somewhere; the sample as a whole holds those more often.
Quantity measured: growth (%)
Answers are plain numbers, in %.

Sample answers from the record:
INPUT: Supply recorded growth for COc1ccc(CN2[C@@H](C(=O)NCc3ccc(C(=O)NO)cc3)Cc3c([nH]c4ccccc34)[C@@H]2C2CC2)cc1 here.
OUTPUT: 12.2

INPUT: Supply recorded growth for CCN1CCN(c2ccc(NC(=O)Nc3ccc4c(c3F)CCN4c3ccnc(C(=O)NC)c3)cc2C(F)(F)F)CC1 here.
OUTPUT: 99.6

# batch: return growth for each of the 2 compounds below
1. Cc1ccc(C(C)C)cc1NC(=O)c1ccccc1N(C)C
2. O=C(CSc1nnc(-c2c[nH]c3ccccc23)n1-c1ccccc1)Nc1ccc(C(=O)/C=C/c2cccc([N+](=O)[O-])c2)cc1

OUTPUT:
86.8
101

###

test system: SK-MEL-2 melanoma; test: NCI-60 one-dose screen, 48 h; conditions: 10 µM
The panel holds about 83,000 compounds, 20% with a hit somewhere; the sample as a whole holds those more often. Activity calls are given as the source filed them. Rule for the calls: active = growth percent below 10; inactive = the rest.
Return exactly one item of 1 = active, 0 = inactive

Example cases with answers are listed next.
INPUT: In this assay, the call recorded for CC(C)CCSc1nc(NC2CC2)c(C#N)c(-c2ccc(C(C)C)cc2)n1 was what?
OUTPUT: 0

INPUT: In this assay, the call recorded for CO[C@@H]1CSSC1Cn1nc(-c2ccc(Oc3ccccc3)cc2)c2c(N)ncnc21 (stereo partly drawn) was what?
OUTPUT: 0

INPUT: In this assay, the call recorded for COc1ccc([C@H]2C(C(=O)c3ccc(Cl)cc3)C3(N[C@@H]2c2ccccc2)C(=O)Nc2ccc(Br)cc23)cc1 (stereo partly drawn) was what?
OUTPUT: 1

Next:
INPUT: In this assay, the call recorded for O=C(Nc1cccc(-c2cn(-c3ccc4oc(=O)ccc4c3)nn2)c1)Nc1cc(C(F)(F)F)cc(C(F)(F)F)c1 was what?
OUTPUT: 0

INPUT: In this assay, the call recorded for Cc1ccc(-c2nc3ccc(C(=O)N=Nc4c(O)[nH]c5ccc([N+](=O)[O-])cc45)cc3[nH]2)cc1 was what?
OUTPUT: 0

INPUT: In this assay, the call recorded for CN(C)c1ccc(/C=C/c2nc3ccccc3c(=O)n2CC(=O)Nc2ccccc2)cc1 was what?
OUTPUT: 0

INPUT: In this assay, the call recorded for CC1(c2ccccc2)NC(=O)N(CC(=O)Nc2ccc(C(=O)/C=C/c3ccc(Br)cc3)cc2)C1=O (stereo not drawn) was what?
OUTPUT: 0

INPUT: In this assay, the call recorded for CC(=O)Nc1nc(-c2ccc(N3CCN(C)CC3)c(NS(=O)(=O)c3ccc(C(F)(F)F)cc3)c2)cs1 was what?
OUTPUT: 1

###

test system: SK-MEL-5 melanoma; assay: NCI-60 one-dose screen, 48 h; details: 10 µM
This is part of a sample that, as a whole, favours compounds with a hit. Of some 83,000 tested, about 20% had one in any assay. Active and inactive are the calls of the source. The calls were made as follows: active = growth percent below 10; inactive = the rest.
Return exactly one item of active, inactive

Example cases with answers are listed next.
INPUT: In this assay, the call recorded for O=C1c2ccccc2C(=O)c2c1c(C(=O)c1ccc(Cl)cc1)n1c2ccc2c3ccccc3ccc21 was what?
OUTPUT: inactive

INPUT: In this assay, the call recorded for COc1ccc(-c2nc(-c3ccccc3)c(-c3ccccc3)n2-c2ccc(S(=O)(=O)Nc3ncccn3)cc2)cc1OC was what?
OUTPUT: inactive

INPUT: In this assay, the call recorded for CCOP(=O)(OCC)O[C@H]1CC[C@]2(C)[C@H]3CC[C@@H]4[C@@H]([C@](C)(O)CCC=C(C)C)CC[C@@]4(C)[C@]3(C)CC[C@H]2C1(C)C was what?
OUTPUT: active

Next:
INPUT: In this assay, the call recorded for O=C(c1ccc(Cl)cc1)C1[C@H](c2ccc(Br)cc2)[C@@H](c2ccccc2)NC12C(=O)Nc1ccc(Cl)cc12 (some centres undefined) was what?
OUTPUT: active

###

Task for the reader: assign each of the following compounds its reported growth.
test system: UO-31 renal; experiment: NCI-60 one-dose screen, 48 h (100 = growth as untreated, 0 = no growth, -100 = all killed); conditions: 10 µM
This is part of a sample that, as a whole, favours compounds with a hit. Of some 83,000 tested, about 20% had one in any assay.
One number for each entry, in %.

INPUT: Supply recorded growth for CC1(c2ccccc2)NC(=O)N(CC(=O)Nc2ccc(C(=O)/C=C/C=C/c3ccccc3)cc2)C1=O (stereo not drawn) here.
OUTPUT: 54.9

INPUT: Supply recorded growth for CCCCCCCCCCCCCCCCCCCC(=O)NCCc1c[nH]c2ccc(O)cc12 here.
OUTPUT: 71.9

INPUT: Supply recorded growth for CN1CCN(c2ccc(Nc3nc(N4CCN(S(=O)(=O)c5ccc(Cl)cc5)CC4)c4sccc4n3)cc2)CC1 here.
OUTPUT: 64.2

# batch: return growth for each of the 7 compounds below
1. O=C(CNc1nc(-c2ccccc2)cs1)Nc1ccc(Cl)cc1[N+](=O)[O-]
2. O=C(c1ccc(O)cc1)C1[C@H](c2ccc(Br)cc2)[C@@H](c2ccccc2)NC12C(=O)Nc1ccccc12 (stereo partly drawn)
3. O=C(Cn1cc(CSc2nnc3oc4ccccc4n23)nn1)Nc1cccc(Cl)c1
4. O=C1Nc2ccc(Cl)cc2/C1=C/c1ccc(OCc2ccccn2)cc1
5. O=c1oc2ccccc2cc1-c1csc(N=Nc2c(O)[nH]c3ccc(Br)cc23)n1
6. O=C(Nc1cccc([N+](=O)[O-])c1)Nc1cccc([N+](=O)[O-])c1
7. COc1cccc2nc(Nc3ccc(F)c(NC(=O)c4ccc(CN5CCN(C)CC5)c(C(F)(F)F)c4)c3)ccc12

OUTPUT:
-56.4
18.9
55.3
59.6
82.7
63.9
5.08

# batch: return growth for each of the 5 compounds below
1. CCOC(=O)C(Cc1ccccc1)N1C(=O)/C(=C/N2N=C(c3ccc(OC)cc3)CC2c2ccc3ccccc3c2)SC1=S (stereo not drawn)
2. O=C1Nc2cc(-c3ccc(NC(=O)c4cccs4)cc3)ccc2/C1=C/c1ccc[nH]1
3. O=C(Nc1ccc(OCC(=O)c2ccccc2)cc1)Nc1ccc(Cl)c(C(F)(F)F)c1
4. O=C(N=Nc1c(O)[nH]c2ccc(Br)cc12)c1ccc2nc(-c3ccccc3)[nH]c2c1
5. O=C(c1ccc(Cl)cc1)C1[C@H](c2ccc(Br)cc2)[C@@H](c2ccccc2)NC12C(=O)Nc1ccccc12 (stereo partly drawn)

OUTPUT:
16.2
82.1
17.6
27.3
2.46

###

Task for the reader: assign each of the following compounds its reported growth.
test system: K-562 leukemia; test: NCI-60 one-dose screen, 48 h (100 = growth as untreated, 0 = no growth, -100 = all killed); conditions: 10 µM
The panel holds about 83,000 compounds, 20% with a hit somewhere; the sample as a whole holds those more often.
Numbers only, in %.

Sample answers from the record:
INPUT: Supply recorded growth for CN(CCF)c1ccc(/C=C/C(=O)c2ccc(N)cc2O)cc1 here.
OUTPUT: 51.4

INPUT: Supply recorded growth for CN1CCN(Cc2ccc(C(=O)Nc3cccc(Nc4ccc5cc(O)ccc5n4)c3)cc2C(F)(F)F)CC1 here.
OUTPUT: -55.8

# batch: return growth for each of the 2 compounds below
1. CN(C)c1ccc(/C=C/c2nc3ccccc3c(=O)n2CC(=O)Nc2ccccc2)cc1
2. N#Cc1c(NC(=O)c2ccc(C(F)(F)F)cc2C(F)(F)F)sc2c1CCC(=O)C2

OUTPUT:
55.6
2.16

# batch: return growth for each of the 4 compounds below
1. C=C(c1ccc(OC)c(N)c1)c1cc(C)nc2ccccc12
2. COc1cnc2c(c1)C(=O)c1c-2n(CCCNC(C)C)c(=O)c2cc(OC)c(OC)cc12
3. Cc1ccc(/C(CSc2nnc(-c3c[nH]c4ccccc34)n2-c2ccccc2)=N/O)cc1
4. CCCCSc1nc(Nc2ccc(/C(C)=N/NC(N)=S)cc2)c(C#N)c(-c2ccccc2)n1

OUTPUT:
[11.3, 5.04, 1.59, 33]
